System: ACHN renal
experimental.details: NCI tumour cell line growth inhibition, 48 h
observed.property: TGI

Would you please look over these solved cases?
compound | TGI
CCCCCCCCCC1CC(=O)OC23CCCC(=O)C12O3 (stereo unspecified) | > 100 µM
CCCCCCC(=O)OC[n+]1ccc2c(C)c3[nH]c4ccc(OC)cc4c3c(C)c2c1 | 4.88 µM
O=C(N/N=C/c1ccccc1)c1c(F)c(F)c(F)c(F)c1F | > 100 µM
CC(C)C(NCc1c2ccccc2[n+](C)c2ccccc12)C(=O)O (stereo unspecified) | 16.4 µM
CCOC(=O)C[C@@]12CCCN[C@]1(C)CCc1ccccc12 | > 100 µM
Cc1ccc(S(=O)(=O)N/N=c2/sc3ccccc3n2C)cc1 | > 100 µM
Nc1nc(-c2ccccc2)c(CC(=O)O)s1 | > 100 µM
CCOC(=O)C1C(c2ccc(Br)cc2)N(Cc2ccccc2)C(c2ccc(Br)cc2)C(C(=O)OC)S1(=O)=O (stereo unspecified) | > 100 µM

### Prompt Request the reported TGI associated with `O=[N+]([O-])/C=C/c1ccc2ccccc2c1`
### Response 4.17 µM

### Prompt CC(=O)c1c(-c2ccc(Cl)cc2)c(C#N)c(=S)n(C2OC(CO)C(O)C(O)C2O)c1C (stereo unspecified) ?
### Response > 100 µM

### Prompt `C#COc1cccc(Nc2ncnc3cc(NC(=O)[C@@H](C)Cl)ccc23)c1` ?
### Response > 62.5 µM
